# credit: patent US20210380703A1

Target: T1, biotinylated goat anti-human kappa light chain
T1 construct: Positive control of the ELISA
Assay: ELISA, positive control; further: test concentration or dose not given here
Procedure: The binding of ACVR2A-specific monoclonal antibodies to human ACVR2A, mouse ACVR2A, biotinylated goat anti-human kappa light chain (positive control) and human Fc (negative control) were determined by ELISA.
The reader will find reported optical density values listed item by item below.
Quick note: give the figure in OD, leave out the unit.

Guide cases for optical density, answers given:
binder="365_E03 (antibody, V domains shown, VH and VL only) VH: EVQLLESGGGLVQPGGSLRLSCAASGFTFDSYSMNWVRQAPGKGLEWVSNINYNGGYTGYADSVKGRFTISRDNSKNTLYLQMNSLRAEDTAVYYCARSATWHDTHLDYWGQGTLVTVSS VL: DIQMTQSPSSLSASVGDRVTITCRASQSILTYVNWYQQKPGKAPKLLIYAATSLHSGVPSRFSGSGSGTDFTLTISSLQPEDFATYYCQQSDERPLTFGGGTKVEIK" endpoint_unit=OD test_result=3.33
binder="373_E08 (antibody, V domains shown, VH and VL only) VH: EVQLLESGGGLVQPGGSLRLSCAASGFTFDSYGMNWVRQAPGKGLEWVSGINYNSGYTSYADSVKGRFTISRDNSKNTLYLQMNSLRAEDTAVYYCARSATWHDTHLDYWGQGTLVTVSS VL: DIQMTQSPSSLSASVGDRVTITCRASQSIVSYVNWYQQKPGKAPKLLIYAVTSRASGVPSRFSGSGSGTDFTLTISSLQPEDFATYYCQQSYESPLTFGGGTKVEIK" endpoint_unit=OD test_result=3.2

Given the binder 375_B10 (antibody, V domains shown, VH and VL only) VH: EVQLLESGGGLVQPGGSLRLSCAASGFTFDSYSMNWVRQAPGKGLEWVSGINYNSGYTSYADSVKGRFTISRDNSKNTLYLQMNSLRAEDTAVYYCARSATWHDTHLDYWGQGTLVTVSS VL: DIQMTQSPSSLSASVGDRVTITCRASQSILSYLNWYQQKPGKAPKLLIYAATSRHSGVPSRFSGSGSGTDFTLTISSLQPEDFATYYCQQSYDLPLTFGGGTKVEIK , what is its reported optical density?
3.14
